# assay comment: qHTS assay to identify small molecule that activate the aryl hydrocarbon receptor (AhR) signaling pathway - cell viability counter screen (AID 743086); note: nearly all actives have a fitted effect of over 45% in size
# assay setup: HepG2-AhR-luc viability, CellTiter-Fluor, 24 h; series mostly up to 70.3 µM
Records with an inconclusive call do not appear. Activity calls are given as the source filed them. Calls come from the whole dose curve; as a rule, active = well fitted cell-killing curve with a large enough effect in the repeat runs; inconclusive = weak or mixed curves, or effect the other way; inactive = flat fitted curve, though single readings scatter. Starred links: 1 amine or outer side, 2 acyl side, 3 side chain; linkers in the order of their positions; H or OH if unused. Positions of bridges follow the written chain, without caps; N, C: chain ends. Non-standard residues stand in square brackets, D forms with d. Residues, ends and D or L forms follow the SMILES beside them. ξ: configuration not given here. *: point of attachment. X5 = NC1=N[C@@H]([C@H](N[*:1])C(=O)[*:2])C[C@H](O)N1; ΔAla(Z-3-ureido) = NC(=O)N/C=C(\N)C(=O)O; d(aThr) = C[C@@H](O)[C@@H](N)C(=O)O; ξThr(3R) = C[C@@H](O)C(N)C(=O)O; β3hOrn = NCCC[C@H](N)CC(=O)*; X3 = CC[C@@H](C)CCCCC(=O)*; X2 = CC[C@H](C)CCCCC(=O)*; dDab = NCC[C@@H](N)C(=O)O; Dab = NCC[C@H](N)C(=O)O; Dap = NC[C@H](N)C(=O)O
Possible outcomes: t (active), f (inactive)

molecule=C=C1C(=O)O[C@H]2[C@H]1CC/C(C)=C\CC[C@@]1(C)O[C@@H]21 class=t
molecule=CCCCCCC(=O)O[C@H]1CC[C@H]2[C@@H]3CCc4cc(O)ccc4[C@H]3CC[C@]12C class=f
molecule=CNC[C@@H]1CC[C@@H](N)[C@@H](O[C@H]2[C@H](O)[C@@H](O[C@H]3OC[C@](C)(O)[C@H](NC)[C@H]3O)[C@H](N)C[C@@H]2N)O1 class=f
molecule=COC(=O)CCC(=O)CN class=f
molecule="C=C(NC(=O)C(=C)NC(=O)c1csc(C2=N[C@@H]3c4csc(n4)[C@H]4NC(=O)c5csc(n5)[C@H]([C@](C)(O)[C@@H](C)O)NC(=O)[C@H]5CSC(=N5)C(=CC)NC(=O)C([C@@H](C)O)NC(=O)c5csc(n5)[C@]3(CC2)NC(=O)[C@H](C)NC(=O)C(=C)NC(=O)[C@H](C)NC(=O)C([C@@H](C)CC)NC2C=Cc3c([C@H](C)O)cc(nc3C2O)C(=O)O[C@@H]4C)n1)C(N)=O (stereo not given in full)" class=f
molecule=CN[C@@H]1[C@H](O[C@H]2[C@H](O[C@H]3[C@H](O)[C@@H](O)[C@H](N=C(N)N)[C@@H](O)[C@@H]3N=C(N)N)O[C@@H](C)[C@]2(O)C=O)O[C@@H](CO)[C@H](O)[C@H]1O class=f
molecule=CC[C@H](CC[C@@H](C)[C@H]1CC[C@H]2[C@@H]3CC=C4C[C@@H](O)CC[C@]4(C)[C@H]3CC[C@]12C)C(C)C class=f
molecule=COCC(=O)Nc1cc(Sc2ccccc2)ccc1N=C(NC(=O)OC)NC(=O)OC class=f
molecule=COc1cc2c(cc1OC)[C@@H](c1ccccc1)CN(C)CC2 class=f
molecule=CC(=O)N[C@@H](C=O)[C@@H](O)[C@H](O)[C@H](O)CO class=f
molecule="CCCCCCCCCCCCCCCCSCC(COC)COP(=O)([O-])OCC[N+](C)(C)C (stereo not given)" class=f
molecule="CC[C@H](C)CCCCC(=O)N[C@@H](CCN)C(=O)N[C@H](C(=O)N[C@@H](CCN)C(=O)N[C@H]1CCNC(=O)[C@@H]([C@H](C)O)NC(=O)[C@H](CCN)NC(=O)[C@H](CCN)NC(=O)[C@H](CC(C)C)NC(=O)[C@@H](CC(C)C)NC(=O)[C@H](CCN)NC1=O)[C@@H](C)O (X2-[Dab]T[Dab][Dab][Dab][dL]L[Dab][Dab][dT]; lactam 4-C)" class=f
molecule="NCCC[C@H](N)CC(=O)N[C@H]1CNC(=O)[C@H]([C@H]2C[C@H](O)NC(N)=N2)NC(=O)/C(=C/NC(N)=O)NC(=O)[C@H](CO)NC(=O)[C@H](CO)NC1=O (β3hOrn-[Dap]SS[ΔAla(Z-3-ureido)][X5]; lactam 1-C)" class=f
molecule="C[C@@H](O)[C@H]1C(=O)N2C(C(=O)[O-])=C(SC3Cn4cnc[n+]4C3)[C@H](C)[C@H]12 (stereo not given in full)" class=f
molecule="C#CCC(Cc1cnc2nc(N)nc(N)c2n1)c1ccc(C(=O)N[C@@H](CCC(=O)O)C(=O)O)cc1 (stereo not given in full)" class=f
molecule=C=C1c2c(Cl)ccc(O)c2C(O)=C2C(=O)[C@]3(O)C(O)=C(C(N)=O)C(=O)[C@@H](N(C)C)[C@@H]3[C@@H](O)[C@H]12 class=f
molecule=Cn1nnnc1SCC1=C(C(=O)O)N2C(=O)[C@@H](NC(=O)[C@H](O)c3ccccc3)[C@H]2SC1 class=f
molecule=CCC(=O)O[C@H]1CC[C@H]2[C@@H]3CCc4cc(O)ccc4[C@H]3CC[C@]12C class=f
molecule="COc1cc(Br)c(C[N+]2(CCOCCC3CCC4CC3C4(C)C)CCOCC2)cc1OC (stereo not given)" class=f
molecule=CC1=C[C@H](O)CC(C)(C)[C@H]1/C=C/C(C)=C/C=C/C(C)=C/C=C/C=C(C)/C=C/C=C(C)/C=C/C1=C(C)C[C@@H](O)CC1(C)C class=f
molecule="CC(=O)Oc1c(C)cc(OCC(O)CNC(C)C)c(C)c1C (stereo not given)" class=f
molecule="CC[C@@H](C)CCCCC(=O)N[C@H](CCN)C(=O)N[C@@H](C(=O)N[C@H](CCN)C(=O)N[C@@H]1CCNC(=O)C([C@@H](C)O)NC(=O)[C@@H](CCN)NC(=O)[C@@H](CCN)NC(=O)[C@@H](CC(C)C)NC(=O)[C@@H](Cc2ccccc2)NC(=O)[C@@H](CCN)NC1=O)[C@@H](C)O (stereo partly drawn) (X3-[dDab][d(aThr)][dDab][dDab][dDab][dF][dL][dDab][dDab][ξThr(3R)]; lactam 4-C)" class=f
molecule=COc1ccc2c(=O)c(C)c(-c3ccccc3)oc2c1CN(C)C class=f
molecule=CC(=O)O[C@H]1C[C@@H]2CC[C@@H]3[C@H](CC[C@@]4(C)[C@H]3C[C@H](N3CC[N+](C)(C)CC3)[C@@H]4OC(C)=O)[C@@]2(C)C[C@@H]1N1CC[N+](C)(C)CC1 class=f
molecule=CC(C)C(=O)OCC(=O)[C@@]12O[C@H](C3CCCCC3)O[C@@H]1C[C@H]1[C@@H]3CCC4=CC(=O)C=C[C@]4(C)[C@H]3[C@@H](O)C[C@@]12C class=f

###

# assay system: Estrogen receptor (Homo sapiens) (UniProt P03372)
# Sequence (P03372 whole entry, looked up): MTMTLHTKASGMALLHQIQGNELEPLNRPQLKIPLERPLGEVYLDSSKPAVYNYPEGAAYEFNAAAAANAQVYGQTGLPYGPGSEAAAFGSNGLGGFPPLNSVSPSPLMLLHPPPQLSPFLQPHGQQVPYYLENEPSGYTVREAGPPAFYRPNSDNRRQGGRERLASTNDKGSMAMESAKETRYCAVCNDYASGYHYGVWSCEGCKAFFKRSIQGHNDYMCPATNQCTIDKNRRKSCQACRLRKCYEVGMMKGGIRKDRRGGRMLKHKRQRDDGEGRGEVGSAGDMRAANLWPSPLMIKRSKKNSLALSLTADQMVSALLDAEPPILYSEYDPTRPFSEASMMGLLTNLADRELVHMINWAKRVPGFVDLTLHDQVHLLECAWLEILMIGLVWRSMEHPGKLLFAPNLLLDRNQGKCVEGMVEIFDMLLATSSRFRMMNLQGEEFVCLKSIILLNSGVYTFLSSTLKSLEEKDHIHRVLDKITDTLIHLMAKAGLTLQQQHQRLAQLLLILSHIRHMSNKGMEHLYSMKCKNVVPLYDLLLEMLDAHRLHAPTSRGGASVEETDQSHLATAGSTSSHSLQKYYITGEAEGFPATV
# assay comment: qHTS assay to identify small molecule antagonists of the estrogen receptor alpha (ER-alpha) signaling pathway (AID 743069); note: potency is the fitted concentration of half-maximal effect
# assay setup: HEK293 ER-alpha-UAS-bla, beta-lactamase ratio, antagonist mode; series mostly up to 69.4 µM
Activity calls are given as the source filed them. The call rests on the fitted dose curve; in most records, active means well fitted curve in the direction sought with a large enough effect in the signal ratio in the repeat runs (not every such curve was filed as active); inconclusive means weak or mixed curves, or effect the other way; inactive means no such curve, though single readings can be large or run the other way; the % refers to the signal ratio.
metric: Potency

compound=O=C(NNCS(=O)(=O)O)c1ccncc1 assay_system="Estrogen receptor (Homo sapiens) (UniProt P03372)" endpoint_result=inactive
compound=Cc1ncc(COP(=O)(O)O)c(CN)c1O assay_system="Estrogen receptor (Homo sapiens) (UniProt P03372)" endpoint_result=inactive
compound=O=C1c2ccccc2C(=O)C1c1ccc(Cl)cc1 assay_system="Estrogen receptor (Homo sapiens) (UniProt P03372)" endpoint_result=inactive
compound="CCC(C)[C@H]1O[C@]2(C=C[C@@H]1C)C[C@@H]1C[C@@H](C/C=C(\\C)[C@@H](O[C@H]3C[C@H](OC)[C@@H](O[C@H]4C[C@H](OC)[C@H](NC(C)=O)[C@H](C)O4)[C@H](C)O3)[C@@H](C)/C=C/C=C3\\CO[C@@H]4[C@H](O)C(C)=C[C@@H](C(=O)O1)[C@]34O)O2 (some centres undefined)" assay_system="Estrogen receptor (Homo sapiens) (UniProt P03372)" endpoint_result="1690 nM [inconclusive] (active)"

###

# assay comment: qHTS assay to identify small molecule antagonists of the thyroid receptor (TR) signaling pathway - cell viability counter screen (AID 743064); note: nearly all actives have a fitted effect of over 50% in size
# assay setup: GH3.TRE-Luc viability, CellTiter-Fluor, 24 h; series mostly up to 70.3 µM
Inconclusive results are not listed. Activity calls are given as the source filed them. Calls follow the shape of the dose curve; as a rule, active = well fitted cell-killing curve with a large enough effect in the repeat runs; inconclusive = weak or mixed curves, or effect the other way; inactive = no such curve, though single readings can be large or run the other way.
Possible outcomes: label 1 = active, label 0 = inactive

molecule="CCc1ccc2c(c1)N(CC(C)CN(C)C)c1ccccc1S2 (stereo not given)" class="label 1"
molecule=CC(=O)O[C@H]1CC[C@@]2(C)C(=CC[C@@H]3[C@@H]2CC[C@]2(C)C(c4cccnc4)=CC[C@@H]32)C1 class="label 1"
molecule=CCOC(=O)Nc1ccc2c(c1)N(C(=O)CN(C)C)c1ccccc1CC2 class="label 1"
molecule="Cc1cc(O)c2c(c1)O[C@@]1(C)CC[C@H]3C(C)(C)CCCC34CO[C@@H]2[C@H]41 (stereo not given in full)" class="label 1"
molecule=COc1ccc2cc([C@H](C)CO)ccc2c1 class="label 0"
